Target: HDAC6 (Homo sapiens, UniProt Q9UBN7)
Sequence (Q9UBN7 1-1215): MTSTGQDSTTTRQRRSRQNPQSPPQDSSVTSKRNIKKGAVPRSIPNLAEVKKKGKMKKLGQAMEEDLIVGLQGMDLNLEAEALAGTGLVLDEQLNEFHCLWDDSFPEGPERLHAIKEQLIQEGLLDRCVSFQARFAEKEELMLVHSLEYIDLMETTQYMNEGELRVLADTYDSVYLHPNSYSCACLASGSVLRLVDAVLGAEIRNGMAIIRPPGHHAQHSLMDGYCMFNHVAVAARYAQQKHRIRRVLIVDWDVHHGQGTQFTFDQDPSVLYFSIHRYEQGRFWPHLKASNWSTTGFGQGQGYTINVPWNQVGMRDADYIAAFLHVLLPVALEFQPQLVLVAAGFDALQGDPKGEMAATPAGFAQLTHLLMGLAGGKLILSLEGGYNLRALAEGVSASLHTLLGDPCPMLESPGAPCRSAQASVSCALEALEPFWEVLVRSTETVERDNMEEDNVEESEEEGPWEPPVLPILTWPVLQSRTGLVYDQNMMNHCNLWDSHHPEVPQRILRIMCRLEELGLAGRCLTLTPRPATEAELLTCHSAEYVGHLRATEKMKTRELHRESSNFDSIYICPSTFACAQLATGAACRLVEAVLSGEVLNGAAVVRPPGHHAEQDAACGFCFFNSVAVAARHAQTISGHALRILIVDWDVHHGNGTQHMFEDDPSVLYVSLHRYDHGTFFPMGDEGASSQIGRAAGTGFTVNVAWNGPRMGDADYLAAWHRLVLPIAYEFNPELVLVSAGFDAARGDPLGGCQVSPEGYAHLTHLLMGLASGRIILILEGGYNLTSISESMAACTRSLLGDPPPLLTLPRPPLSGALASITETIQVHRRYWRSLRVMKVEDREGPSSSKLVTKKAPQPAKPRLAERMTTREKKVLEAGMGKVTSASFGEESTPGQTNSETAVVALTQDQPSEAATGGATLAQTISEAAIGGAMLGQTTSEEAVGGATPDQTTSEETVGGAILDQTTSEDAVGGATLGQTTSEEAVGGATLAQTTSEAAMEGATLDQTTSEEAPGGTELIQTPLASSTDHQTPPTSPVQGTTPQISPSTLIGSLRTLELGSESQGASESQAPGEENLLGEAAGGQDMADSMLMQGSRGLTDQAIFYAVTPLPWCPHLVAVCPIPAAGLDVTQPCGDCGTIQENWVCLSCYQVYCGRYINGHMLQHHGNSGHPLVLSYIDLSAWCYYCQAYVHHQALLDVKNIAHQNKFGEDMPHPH
Assay: In vitro HDAC6 inhibition
Assay type: biochemical
Conditions: HDAC6, 10 μM
Listing of entries alongside the reported inhibition at 10 µM.
Record the value in %, omitting the unit from your answer.

Form: compound = `O=C(NO)c1ccc(NCc2csc3ccccc23)cc1` ; inhibition at 10 µM = 99.8

Form: compound = `O=C(NO)c1ccc(NCc2csc3ccc(Br)cc23)cc1` ; inhibition at 10 µM = 99.2

Form: compound = O=C(NO)c1ccc(NCc2csc3cc(Br)ccc23)cc1 [Compound 13a] ; inhibition at 10 µM = 99.3

Form: compound = `O=C(NO)c1ccc(N(Cc2ccccc2)Cc2csc3ccccc23)cc1` ; inhibition at 10 µM = 89.9

Form: compound = `O=C(NO)c1ccc(N(Cc2ccccc2)Cc2csc3ccc(Br)cc23)cc1` ; inhibition at 10 µM = 84.9

Form: compound = `O=C(NO)c1ccc(N(Cc2ccccc2)Cc2csc3ccc(-c4ccccc4)cc23)cc1` ; inhibition at 10 µM = 47.9

Form: compound = O=C(NO)c1ccc(N(Cc2ccccc2)Cc2csc3cc(-c4ccccc4)ccc23)cc1 [Compound 14b] ; inhibition at 10 µM = 61.1

Form: compound = `O=C(NO)c1ccc(NCc2csc3ccc(-c4ccccc4)cc23)cc1` ; inhibition at 10 µM = 95.1
